Catalogue of compounds with associated IC50
testSystem: HIV-1 RT-associated RNase H (Human immunodeficiency virus type 1 group M subtype B)
Construct: His-tagged p66/p51 HIV-1 RT group M subtype B; His tag
protocolText: RNase H polymerase-independent cleavage assay
assayConditions: IC50, compound concentration required to reduce HIV-1 RT-associated RNase H activity by 50%, recombinant HIV-1 wt RT, hybrid RNA/DNA substrate, 37 °C, 1 hour

Ask | Identify measured IC50 corresponding to COC(=O)C1=C(C)N=C2SC(=NNc3ccccc3C(C)=O)C(=O)N2C1c1ccc(OC)c(OC)c1OC (stereo not drawn) [Compound 11i]
Reply | > 100 µM

Ask | Determine from records and report IC50 for COC(=O)C1=C(C)N=C2SC(=NNc3ccccc3S(=O)(=O)O)C(=O)N2C1c1ccc(OC)c(OC)c1OC (stereo not drawn) [Compound 11e]
Reply | > 100 µM

Ask | Note IC50 for the compound shown: COC(=O)C1=C(C)N=C2S/C(=N\Nc3ccccc3S(=O)(=O)O)C(=O)N2C1c1ccccc1 (stereo not drawn) [Compound 10k]
Reply | > 100 µM
